target_under_test: T1, αvβ5 integrin (UniProt P06756 31-992; P18084 24-719, limits assumed)
T1 construct: Coated on microtiter plates
protocol: competitive binding assay, integrin-coated plates; competitor probe acetyl-CisoDGRCG/streptavidin-peroxidase
Starred links: 1 amine or outer side, 2 acyl side, 3 side chain; linkers in the order of their positions; H or OH if unused. Positions of bridges follow the written chain, without caps; N, C: chain ends. Non-standard residues stand in square brackets, D forms with d. No end group written: not given here. βAsp = O=C(O)[C@H](CC(=O)[*:2])N[*:1]
A collection of binders and their measured Ki

binder	unit_tag	operator_symbol	Ki
SCDGRCGVRY [SCDGRCGVRY peptide]	nM	=	779
Ac-C[βAsp]GRCGVRY (disulfide 1-5) [acetyl-CisoDGRCGVRY peptide]	nM	=	21
SCNGRCGVRY (disulfide 2-6, Synthetic peptide corresponding to the N-terminal region of human S-NGR-TNF) [SCNGRCGVRY peptide]	nM	>	10000
C[βAsp]GRCGVRY (disulfide 1-5) [CisoDGRCGVRY peptide]	nM	=	391
SC[βAsp]GRCGVRY (disulfide 2-6) [SCisoDGRCGVRY peptide]	nM	=	77

Cited source: patent US20230181719A1
